- Assay explanation: Acute Oral Toxicity in Mice (Laboratory Strain)
- Condition label: mouse, in vivo, aqueous suspension, mg/kg animal body weight, observed until no deaths for at least three days
Friendly reminder: LD50 below 70 mg/kg is fulfilled, at or above is not fulfilled.

[ask] Hi there! Is LD50 for CC(C)(CO)C1CCN(CC#Cc2cc(C(F)(F)F)cc(C(F)(F)F)c2)CC1 [1 (as free base)] below 70 mg/kg, do you know?
[reply] not fulfilled

[ask] Item CC(=O)O.CC(C)(CO)C1CCN(CC#Cc2cc(C(F)(F)F)cc(C(F)(F)F)c2)CC1 [1 (as acetate)] : LD50 beneath 70 mg/kg, strictly?
[reply] not fulfilled

[ask] Item CC(C)(CO)C1CCN(CC#Cc2cc(C(F)(F)F)cc(C(F)(F)F)c2)CC1.Cl [1 (as hydrochloride)] : LD50 beneath 70 mg/kg, strictly?
[reply] fulfilled
